Measured EC50 accompanies every entry in the list below.
Target: ERRγ (Homo sapiens, UniProt P62508)
Sequence (P62508 1-458): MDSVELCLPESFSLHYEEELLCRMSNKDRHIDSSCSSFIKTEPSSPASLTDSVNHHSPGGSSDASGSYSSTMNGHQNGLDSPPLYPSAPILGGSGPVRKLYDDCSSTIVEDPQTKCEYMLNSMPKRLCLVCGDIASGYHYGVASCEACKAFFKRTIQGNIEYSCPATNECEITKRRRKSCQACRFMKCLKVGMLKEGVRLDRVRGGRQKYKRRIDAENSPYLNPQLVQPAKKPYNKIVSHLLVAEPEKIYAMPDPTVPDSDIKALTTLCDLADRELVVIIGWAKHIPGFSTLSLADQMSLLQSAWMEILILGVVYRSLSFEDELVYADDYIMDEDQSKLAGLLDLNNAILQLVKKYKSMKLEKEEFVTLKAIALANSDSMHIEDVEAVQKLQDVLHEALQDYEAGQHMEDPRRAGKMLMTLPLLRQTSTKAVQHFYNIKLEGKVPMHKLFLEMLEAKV
Test: ERRE luciferase reporter assay in HEK293 cells transfected with pcDNA3.1 ERRγ
Conditions: HEK293 cells transfected with ERRE reporter construct and pcDNA3.1 ERRγ; compound for 24 hours; luciferase activity

>>> meas_value("FC(F)(F)c1cccc(-c2nnc(-c3ccccn3)o2)c1 [Entry 61]")
"< 1 µM"

[Q] What value of EC50 has been reported for the following compound? Cc1cccc(-c2nnc(-c3cccc(C(F)(F)F)c3)s2)n1 [Entry 1073]
[A] 1 to 5 µM

[Q] What value of EC50 has been reported for the following compound? Clc1ccccc1-c1nnc(-c2nccs2)s1 [Entry 1061]
[A] > 5 µM

[Q] What value of EC50 has been reported for the following compound? O=[N+]([O-])c1ccccc1-c1nnc(-c2ccccc2)o1 [Entry 80]
[A] 1 to 5 µM

[Q] What value of EC50 has been reported for the following compound? Cc1ccc(-c2nnc(-c3ccccc3[N+](=O)[O-])o2)cc1 [Entry 37]
[A] < 1 µM

[Q] What value of EC50 has been reported for the following compound? c1ccc(-c2nnc(-c3cnccn3)s2)cc1 [Entry 1010]
[A] < 1 µM

[Q] What value of EC50 has been reported for the following compound? FC(F)(F)c1cccc(-c2nnc(-c3ccccc3)o2)c1 [Entry 56]
[A] < 1 µM

[Q] What value of EC50 has been reported for the following compound? CCCCOc1ccc(-c2nnc(-c3ccccc3Cl)s2)cc1 [Entry 1052]
[A] < 1 µM

* * *

Target: ERRα (Homo sapiens, UniProt P11474)
Sequence (P11474 whole entry, species assumed): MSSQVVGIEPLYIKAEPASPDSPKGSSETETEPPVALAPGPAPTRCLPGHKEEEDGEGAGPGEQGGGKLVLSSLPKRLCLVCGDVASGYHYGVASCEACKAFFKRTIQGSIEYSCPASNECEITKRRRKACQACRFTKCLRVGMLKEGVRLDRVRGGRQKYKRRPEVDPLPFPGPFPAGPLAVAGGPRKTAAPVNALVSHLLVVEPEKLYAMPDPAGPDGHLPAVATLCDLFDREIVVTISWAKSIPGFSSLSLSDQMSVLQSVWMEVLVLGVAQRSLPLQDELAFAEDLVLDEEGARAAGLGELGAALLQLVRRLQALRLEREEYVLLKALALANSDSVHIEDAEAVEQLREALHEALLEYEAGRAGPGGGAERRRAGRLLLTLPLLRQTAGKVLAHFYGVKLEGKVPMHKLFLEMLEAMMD
Experiment: ERRE luciferase reporter assay in HEK293 cells transfected with pcDNA3.1 ERRα
Conditions: HEK293 cells transfected with ERRE reporter construct and pcDNA3.1 ERRα; compound for 24 hours; luciferase activity
pEC50: −log10 of the molar value.
Measured endpoint: pEC50

>>> meas_value("Clc1ccc(-c2nnc(-c3ccc(Cl)cc3)o2)cc1 [Entry 6]")
"> 6.00"
>>> meas_value("c1ccc(Cc2nnc(-c3ccccc3)s2)cc1 [Entry 1038, 2-benzyl-5-phenyl-1,3,4-thiadiazole]")
"5.30 to 6.00"

[Q] What value of pEC50 has been reported for the following molecule? Cc1ccc(-c2nnc(-c3ccccc3[N+](=O)[O-])o2)cc1 [Entry 37]
[A] > 6.00

[Q] What value of pEC50 has been reported for the following molecule? COC(=O)c1cccc(-c2nnc(-c3ccccc3Cl)s2)c1 [Entry 1050]
[A] > 6.00

[Q] What value of pEC50 has been reported for the following molecule? c1ccc(-c2nnc(C3CCCCC3)s2)cc1 [Entry 1006, 2-cyclohexyl-5-phenyl-1,3,4-thiadiazole]
[A] > 6.00
